Target: sGC α1/β1 heterodimer (Homo sapiens, UniProt Q02108+Q02153)
Construct: expressed in transfected cells; host or cells: CHO-K1 (clone #7, CHO-K1/sGC)
Sequence (Q02108 1-690): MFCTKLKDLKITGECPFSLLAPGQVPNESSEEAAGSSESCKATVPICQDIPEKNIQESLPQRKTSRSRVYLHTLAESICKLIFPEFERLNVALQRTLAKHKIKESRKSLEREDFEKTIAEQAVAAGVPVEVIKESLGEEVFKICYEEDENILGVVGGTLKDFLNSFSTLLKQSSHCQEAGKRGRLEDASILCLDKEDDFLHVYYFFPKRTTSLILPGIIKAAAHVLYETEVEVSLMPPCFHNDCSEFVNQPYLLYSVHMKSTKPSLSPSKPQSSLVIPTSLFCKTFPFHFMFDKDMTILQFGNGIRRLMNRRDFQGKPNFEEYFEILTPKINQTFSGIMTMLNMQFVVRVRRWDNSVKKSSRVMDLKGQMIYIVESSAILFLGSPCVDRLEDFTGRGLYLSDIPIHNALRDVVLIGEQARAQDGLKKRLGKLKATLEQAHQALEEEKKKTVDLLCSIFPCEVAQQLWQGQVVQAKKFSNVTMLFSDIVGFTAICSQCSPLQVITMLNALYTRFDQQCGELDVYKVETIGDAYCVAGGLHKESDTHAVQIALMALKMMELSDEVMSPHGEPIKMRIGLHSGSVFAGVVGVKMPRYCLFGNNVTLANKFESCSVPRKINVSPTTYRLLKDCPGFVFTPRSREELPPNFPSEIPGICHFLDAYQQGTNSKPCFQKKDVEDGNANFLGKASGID
Sequence (Q02153 1-619): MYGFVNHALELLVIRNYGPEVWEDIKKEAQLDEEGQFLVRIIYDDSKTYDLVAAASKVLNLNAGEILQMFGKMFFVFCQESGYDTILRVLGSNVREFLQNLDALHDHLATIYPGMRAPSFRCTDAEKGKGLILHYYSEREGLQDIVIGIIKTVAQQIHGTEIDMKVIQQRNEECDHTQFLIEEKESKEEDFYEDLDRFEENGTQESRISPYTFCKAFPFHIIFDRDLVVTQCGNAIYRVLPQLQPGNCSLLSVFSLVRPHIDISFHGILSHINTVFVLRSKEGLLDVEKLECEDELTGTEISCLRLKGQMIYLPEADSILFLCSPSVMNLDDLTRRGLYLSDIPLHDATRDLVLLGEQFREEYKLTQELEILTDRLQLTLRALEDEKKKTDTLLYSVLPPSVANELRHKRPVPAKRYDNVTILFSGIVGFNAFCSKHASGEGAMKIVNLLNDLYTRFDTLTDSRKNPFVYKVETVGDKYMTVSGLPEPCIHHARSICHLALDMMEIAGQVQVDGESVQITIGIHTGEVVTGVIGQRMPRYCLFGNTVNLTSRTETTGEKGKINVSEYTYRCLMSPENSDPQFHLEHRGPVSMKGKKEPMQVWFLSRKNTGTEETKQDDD
Assay: Cell-Based sGC Functional Assay (CASA Assay), cGMP by HTRF in CHO-K1/sGC cells
Conditions: cGMP production, 1 hr at 37° C., 4P fit, presence or absence of 1 μM DETA-NO not given, read-out: IP (nM) (inflection point)
endpoint.label: EC50 (nM)

INSERT INTO measurements (molecule, units_of_measure, experimental_result) VALUES
  ('CCCCc1nc(-c2nc(O)c3c(n2)NC(=O)C3(c2ccc(F)c(F)c2)C2CC2)cn2ccnc12 (stereo not shown) [Example 19A]', 'nM', 107),
  ('O=C1Nc2nc(-c3cn4ccnc4c(CCC(F)(F)C(F)(F)F)n3)ncc2C1(c1ccc(Cl)cn1)C1CC1 (stereo not shown)', 'nM', 343),
  ('COCCOc1nc(-c2cn3ccnc3c(CCC(F)(F)C(F)(F)F)n2)nc2c1C(C)(c1ccc(F)cc1)C(=O)N2 (stereo not shown) [Example 88A]', 'nM', 38);

I. O=C1Nc2nc(-c3cn4ccnc4c(CCCC(F)(F)F)n3)ncc2C1(c1ccc(F)cn1)C1CC1 (stereo not shown) [Example 54A]
II. CC1(c2ccc(Cl)cc2)C(=O)Nc2nc(-c3cn4ccnc4c(CCC(F)(F)C(F)(F)F)n3)nc(O)c21 (stereo not shown)
Inquiry: Lowest EC50? choose I or II To answer, give the label that identifies your chosen option.
Reply text: I

A. O=C1Nc2nc(-c3cn4ccnc4c(CCCC(F)(F)F)n3)nc(O)c2C1(c1ccc(F)cc1)C1CC1 (stereo not shown) [Example 35B]
B. CC1(c2ccc(F)cn2)C(=O)Nc2nc(-c3cn4ccnc4c(CCC(F)(F)C(F)(F)F)n3)ncc21 (stereo not shown) [Example 62B]
Inquiry: Lowest EC50? choose A or B To answer, give the label that identifies your chosen option.
Reply text: B
(B: 104 nM, A: 190 nM)
